measured on: DR4w4 (DRB1*0401) (Homo sapiens, UniProt P01903+P01911, A100K/A169T/F76Y/I96L/K127E/L162R/M171V/N62H/P40V/Q125Y/R42H/S133A/S149N/S66Y/V115G/V209L/W38E)
experimental details: biochemical
Assay type: binding
No end group written: not given here.
parameter: pIC50
The scale used: pIC50 is minus the common logarithm of the concentration in molar units.

Recorded results for 2 sequences are shown here.
>>> observed("LETIYNSQYSNEKWT [Peptide 1601.03]")
7.00
>>> observed("VTAIFGVNPTIAEGF [Peptide 89.0023]")
6.08

# pIC50 (sequence: IAYYYAQLADSNSNA [Peptide 89.0072] ) is 6.12

# pIC50 (sequence: ILLYGAANTGKSLFG [Peptide 89.0018] ) is 6.82

# pIC50 (sequence: KSLFGMSLMKFLQGS [Peptide 89.0020] ) is 6.24

# pIC50 (sequence: GKSYFGMSLIQFLKG [Peptide 89.0075] ) is 6.34

# pIC50 (sequence: KWGVLILALLRYKCG [Peptide 89.0027] ) is 6.23

# pIC50 (sequence: KIGMIDDVTPISWTY [Peptide 90.0087] ) is 7.70
